# SYSTEM NAME: electric eel (Electrophorus electricus) AChE (Electrophorus electricus, UniProt O42275)
# Sequence (O42275 24-633): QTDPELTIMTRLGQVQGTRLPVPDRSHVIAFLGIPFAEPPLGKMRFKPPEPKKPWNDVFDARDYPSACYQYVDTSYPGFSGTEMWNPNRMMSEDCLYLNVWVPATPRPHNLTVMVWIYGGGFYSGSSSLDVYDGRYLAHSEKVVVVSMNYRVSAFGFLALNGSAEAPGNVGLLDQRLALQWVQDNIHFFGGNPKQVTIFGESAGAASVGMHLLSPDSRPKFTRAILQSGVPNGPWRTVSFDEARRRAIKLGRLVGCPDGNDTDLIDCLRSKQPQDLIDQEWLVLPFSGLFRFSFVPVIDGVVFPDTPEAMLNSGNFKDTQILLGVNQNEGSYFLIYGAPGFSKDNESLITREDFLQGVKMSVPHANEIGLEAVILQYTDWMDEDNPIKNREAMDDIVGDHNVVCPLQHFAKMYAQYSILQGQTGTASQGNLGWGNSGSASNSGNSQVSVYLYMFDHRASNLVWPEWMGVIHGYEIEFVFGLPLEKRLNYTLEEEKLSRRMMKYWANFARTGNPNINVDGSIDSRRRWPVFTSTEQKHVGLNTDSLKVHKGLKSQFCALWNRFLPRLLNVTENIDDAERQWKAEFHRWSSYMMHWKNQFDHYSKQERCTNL
# PROTOCOL SUMMARY: Acetylcholinesterase
# Format: biochemical
# CONDITION: read-out: AChE inhibitory activity
// not satisfied strictly below 40% in inhibition at 100 µg/mL; satisfied otherwise

Q) Check this compound for inhibition at 100 µg/mL at or above 40%: Cc1nc2ccccc2c(=O)n1CC(=O)Nc1cccc(Cl)c1
A) satisfied

Q) Check this compound for inhibition at 100 µg/mL at or above 40%: Cc1ccc(NC(=O)Cn2c(C)nc3ccccc3c2=O)cc1
A) satisfied

Q) Check this compound for inhibition at 100 µg/mL at or above 40%: Cc1nc2ccccc2c(=O)n1CC(=O)Nc1ccc(Br)cc1
A) not satisfied

Q) Check this compound for inhibition at 100 µg/mL at or above 40%: Cc1nc2ccccc2c(=O)n1CC(=O)Nc1ccccc1Cl
A) not satisfied

Q) Check this compound for inhibition at 100 µg/mL at or above 40%: Cc1nc2ccccc2c(=O)n1CC(=O)Nc1ccc([N+](=O)[O-])cc1
A) not satisfied

Q) Check this compound for inhibition at 100 µg/mL at or above 40%: Cc1nc2ccccc2c(=O)n1CC(=O)Nc1ccc(Cl)cc1
A) not satisfied

Q) Check this compound for inhibition at 100 µg/mL at or above 40%: Cc1ccccc1NC(=O)Cn1c(C)nc2ccccc2c1=O
A) not satisfied
